# ASSAYED TARGET: human mAChR M1 (Homo sapiens)
# Construct: host or cells: CHO-K1 cells (ATCC), stably transfected using Lipofectamine2000
# Sequence (P11229 whole entry): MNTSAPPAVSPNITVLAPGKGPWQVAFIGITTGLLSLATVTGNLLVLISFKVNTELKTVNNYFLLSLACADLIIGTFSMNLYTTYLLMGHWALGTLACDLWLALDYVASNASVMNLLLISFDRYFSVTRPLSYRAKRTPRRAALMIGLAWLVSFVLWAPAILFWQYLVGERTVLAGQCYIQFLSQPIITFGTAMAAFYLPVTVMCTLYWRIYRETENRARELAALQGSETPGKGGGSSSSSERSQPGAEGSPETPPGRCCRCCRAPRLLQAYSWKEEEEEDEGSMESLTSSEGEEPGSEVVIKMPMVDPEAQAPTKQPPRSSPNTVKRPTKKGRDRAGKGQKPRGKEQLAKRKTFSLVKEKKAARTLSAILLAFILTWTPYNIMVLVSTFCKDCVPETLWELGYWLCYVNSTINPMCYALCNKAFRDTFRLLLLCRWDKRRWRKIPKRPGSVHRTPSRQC
# PROTOCOL: mAChR M1 cell-based functional assay (calcium mobilization), agonist activity upon compound addition
# CONDITION NOTES: CHO-K1 cells expressing hM1; relative to the maximum for acetylcholine
READOUT: Emax

A selection of reference data follows.
Cc1cncc(-c2cc(F)c(Cn3cc(C(=O)N[C@H]4CCOC[C@@H]4O)c4ncccc4c3=O)c(F)c2)c1 [Compound A33]
13%
Cn1cc2c(-c3cc(F)c(Cn4cc(C(=O)N[C@H]5CCCCC[C@@H]5O)c5occc5c4=O)c(F)c3)cccc2n1 [Compound D22]
9%
Cn1cc(-c2ccc(Cn3cc(C(=O)N[C@H]4CCCC[C@@H]4O)c4ncccc4c3=O)cn2)cn1 [Compound A16]
27%
Cn1cc(-c2ccc(Cn3cc(C(=O)N[C@H]4CCCCC[C@@H]4O)c4occc4c3=O)c(F)c2)cn1 [Compound D16]
8%
Cn1cc(-c2ccc(Cn3cc(C(=O)N[C@@H]4CC[C@H]4O)c4ncccc4c3=O)c(F)c2)cn1 [Compound A9]
< 5%
Cn1cc(-c2ccc(Cn3cc(C(=O)N[C@H]4CCCCC[C@@H]4O)c4ncccc4c3=O)cn2)cn1 [Compound A18]
< 5%
Cc1cnn(C)c1-c1ccc(Cn2cc(C(=O)N[C@H]3CCCC[C@@H]3O)c3nccn3c2=O)c(F)c1 [Compound B35]
< 5%
Cn1nccc1-c1ccc(Cn2cc(C(=O)N[C@H]3CCOC[C@@H]3O)c3ncccc3c2=O)c(F)c1 [Compound A45]
< 5%
Cn1cc(-c2ccc(Cn3cc(C(=O)N[C@H]4CCC[C@@H]4O)c4nccnc4c3=O)c(F)c2)cn1 [Compound A79]
< 5%
Cn1cc(-c2ccc(Cn3cc(C(=O)N[C@H]4CCCCC[C@@H]4O)c4ncncc4c3=O)c(F)c2)cn1 [Compound A91]
< 5%

# next compound below
Lookup: Value wanted: Emax (human mAChR M1 (Homo sapiens)) of entry Cn1cc(-c2ccc(Cn3cc(C(=O)N[C@H]4CCCCC[C@@H]4O)c4ncccc4c3=O)cc2)cn1 [Compound A87]
Found: < 5%

---

# ASSAYED TARGET: human mAChR M1 (Homo sapiens)
# Construct: host or cells: CHO-K1 cells (ATCC), stably transfected using Lipofectamine2000
# PROTOCOL: mAChR M1 cell-based functional assay (calcium mobilization), agonist activity upon compound addition
# CONDITION NOTES: CHO-K1 cells expressing hM1; compound alone, before acetylcholine addition
READOUT: EC50

Cc1cc(C)cc(-c2ccc(Cn3cc(C(=O)N[C@H]4CCOC[C@@H]4O)c4ncccc4c3=O)c(F)c2)c1
> 10 µM
O=C(N[C@H]1CCCCC[C@@H]1O)c1cn(Cc2ccc(-n3cccn3)cc2)c(=O)c2ccoc12
> 10 µM
Cn1cc2c(-c3cc(F)c(Cn4cc(C(=O)N[C@H]5CCCCC[C@@H]5O)c5nccnc5c4=O)c(F)c3)cccc2n1
5 µM

# next compound below
Lookup: Value wanted: EC50 (human mAChR M1 (Homo sapiens)) of entry `Cn1cc2c(-c3cc(F)c(Cn4cc(C(=O)NC5CCOCC5)c5occc5c4=O)c(F)c3)cccc2n1`
Found: > 10 µM

---

# ASSAYED TARGET: human mAChR M1 (Homo sapiens)
# Construct: host or cells: CHO-K1 cells (ATCC), stably transfected using Lipofectamine2000
# PROTOCOL: mAChR M1 cell-based functional assay (calcium mobilization), PAM activity: increase in the EC20 acetylcholine response
# CONDITION NOTES: CHO-K1 cells expressing hM1; potentiation of EC20 acetylcholine response
READOUT: log10(EC50) (log10 of the value in nM)
Values below are the log10 of the recorded EC50, with nM as the unit.

A selection of reference data follows.
Cn1cc2c(-c3cc(F)c(Cn4cc(C(=O)N[C@H]5CCC[C@@H]5O)c5sccc5c4=O)c(F)c3)cccc2n1
3.89
Cn1cc2c(-c3cc(F)c(Cn4cc(C(=O)N[C@H]5CCCCC[C@@H]5O)c5occc5c4=O)c(F)c3)cccc2n1
2.98
Cn1ccc(-c2ccc(Cn3cc(C(=O)N[C@H]4CCOC[C@@H]4O)c4ncccc4c3=O)c(F)c2)n1
2.68
Cn1ccc(-c2ccc(Cn3cc(C(=O)N[C@H]4CCCCC[C@@H]4O)c4occc4c3=O)c(F)c2)n1
3.49
Cn1cc2c(-c3cc(F)c(Cn4cc(C(=O)N[C@H]5CCCC[C@@H]5O)c5ncccc5c4=O)c(F)c3)cccc2n1
1.72
Cn1cc(-c2ccc(Cn3cc(C(=O)N[C@H]4CCCC[C@@H]4O)c4nccnc4c3=O)c(F)c2)cn1
3.37

# next molecule below
Lookup: Value wanted: log10(EC50) (human mAChR M1 (Homo sapiens)) of entry `Cn1cc(-c2ccc(Cn3cc(C(=O)N[C@H]4CCCC[C@@H]4O)c4ncccc4c3=O)cc2)cn1`
Found: 2.57
